Each entry below lists one item and its recorded log10 EC50 value.
- Test system: Human immunodeficiency virus 1
- test details: Antiviral activity against HIV1 BaL assessed as inhibition of infection in HeLa P4/R5 cells expressing CD4 receptor and beta-gal incubated for 2 hrs followed by compound-wash out measured after 46 hrs by single round infection MAGI assay
- Assay type: functional, organism-based
- cond: Human immunodeficiency virus 1, BaL
endpoint name: log10 EC50 (log10 of the value in nM)

>>> readout_value("CCSCCCCCCCCCCCC(=O)OC[C@@H]1O[C@H](n2ccc(N)nc2=O)CS1")
2.30
>>> readout_value("[N-]=[N+]=NCCCCCCCCCCCC(=O)OC[C@@H]1O[C@H](n2ccc(N)nc2=O)CS1")
2.85
>>> readout_value("CCCCCCCCCCCCCC(=O)Nc1ccn([C@@H]2CS[C@H](CO)O2)c(=O)n1")
2.85
>>> readout_value("CCCCCCCCCCCCCC(=O)Nc1ccn([C@@H]2CS[C@H](COC(=O)CCCCCCCCCCCCC)O2)c(=O)n1")
5.13
>>> readout_value("CCCCCCCCCCCCCC(=O)OC[C@@H]1O[C@H](n2ccc(N)nc2=O)CS1")
2.30
>>> readout_value("CCSCCCCCCCCCCCC(=O)Nc1ccn([C@@H]2CS[C@H](CO)O2)c(=O)n1")
2.60
>>> readout_value("[N-]=[N+]=NCCCCCCCCCCCC(=O)Nc1ccn([C@@H]2CS[C@H](COC(=O)CCCCCCCCCCCN=[N+]=[N-])O2)c(=O)n1")
4.86
>>> readout_value("[N-]=[N+]=NCCCCCCCCCCCC(=O)Nc1ccn([C@@H]2CS[C@H](CO)O2)c(=O)n1")
3.58
